Numbers sourced from the NIST ThermoML archive (doi:10.1016/j.jct.2018.05.017).

# procedure details: activity coefficient (dimensionless); of the first substance listed, at infinite dilution; xn = mol fraction of the nth substance listed
# test conditions: 313.15 K; 101.33 kPa; Liquid; Chromatography; x1 = 0
activity coefficient by entry:
measured endpoint: activity coefficient

ClCCl [dichloromethane] + CCCCCCn1cc[n+](C)c1C.F[B-](F)(F)F | 0.7
CCCCCCCCC [nonane] + CCCCCCn1cc[n+](C)c1C.F[B-](F)(F)F | 89.5
c1ccccc1 [benzene] + CCCCCCn1cc[n+](C)c1C.F[B-](F)(F)F | 1.54
CCCCCCCC [octane] + CCCCCCn1cc[n+](C)c1C.F[B-](F)(F)F | 65.1
CCc1ccccc1 [ethylbenzene] + CCCCCCn1cc[n+](C)c1C.F[B-](F)(F)F | 3.81
Cc1ccccc1 [toluene] + CCCCCCn1cc[n+](C)c1C.F[B-](F)(F)F | 2.21
CCCCO [butan-1-ol] + CCCCCCn1cc[n+](C)c1C.F[B-](F)(F)F | 2.77
CC#N [acetonitrile] + CCCCCCn1cc[n+](C)c1C.F[B-](F)(F)F | 0.52
CCOC(C)=O [ethyl acetate] + CCCCCCn1cc[n+](C)c1C.F[B-](F)(F)F | 2.01

---

# procedure details: activity coefficient (dimensionless); of the first substance listed, at infinite dilution; xn = mol fraction of the nth substance listed
# test conditions: 313.15 K; 101.33 kPa; Liquid; Chromatography; x1 = 0
measured endpoint: activity coefficient

CCCCCC [hexane] + CCCCCCn1cc[n+](C)c1C.F[B-](F)(F)F | 31
CO [methanol] + CCCCCCn1cc[n+](C)c1C.F[B-](F)(F)F | 0.96
CCO [ethanol] + CCCCCCn1cc[n+](C)c1C.F[B-](F)(F)F | 1.4
C1CCOC1 [tetrahydrofuran] + CCCCCCn1cc[n+](C)c1C.F[B-](F)(F)F | 1.6
CCCCCCC [heptane] + CCCCCCn1cc[n+](C)c1C.F[B-](F)(F)F | 47.9

---

# procedure details: activity coefficient (dimensionless); of the first substance listed, at infinite dilution; xn = mol fraction of the nth substance listed
# test conditions: 313.15 K; 101.33 kPa; Liquid; Chromatography; x1 = 0
measured endpoint: activity coefficient

CCCCC [pentane] + CCCCCCn1cc[n+](C)c1C.F[B-](F)(F)F | 28.9
C1COCCO1 [1,4-dioxane] + CCCCCCn1cc[n+](C)c1C.F[B-](F)(F)F | 1.08
Cc1cccc(C)c1 [1,3-dimethylbenzene] + CCCCCCn1cc[n+](C)c1C.F[B-](F)(F)F | 3.37
CC(C)=O [acetone] + CCCCCCn1cc[n+](C)c1C.F[B-](F)(F)F | 0.84
CC1CCCCC1 [methylcyclohexane] + CCCCCCn1cc[n+](C)c1C.F[B-](F)(F)F | 25.4
C1=CCCCC1 [cyclohexene] + CCCCCCn1cc[n+](C)c1C.F[B-](F)(F)F | 9.89
ClC(Cl)(Cl)Cl [tetrachloromethane] + CCCCCCn1cc[n+](C)c1C.F[B-](F)(F)F | 3.5
CCCO [propan-1-ol] + CCCCCCn1cc[n+](C)c1C.F[B-](F)(F)F | 1.74
CCCCCCCCCC [decane] + CCCCCCn1cc[n+](C)c1C.F[B-](F)(F)F | 125
CCC(C)O (configuration not stated) [butan-2-ol] + CCCCCCn1cc[n+](C)c1C.F[B-](F)(F)F | 2.65
C1CCCCC1 [cyclohexane] + CCCCCCn1cc[n+](C)c1C.F[B-](F)(F)F | 19.8
ClC(Cl)Cl [trichloromethane] + CCCCCCn1cc[n+](C)c1C.F[B-](F)(F)F | 0.68
Cc1ccccc1C [1,2-dimethylbenzene] + CCCCCCn1cc[n+](C)c1C.F[B-](F)(F)F | 2.38
CC(C)O [propan-2-ol] + CCCCCCn1cc[n+](C)c1C.F[B-](F)(F)F | 1.75
Cc1ccc(C)cc1 [1,4-dimethylbenzene] + CCCCCCn1cc[n+](C)c1C.F[B-](F)(F)F | 2.84
CC(C)CO [2-methyl-1-propanol] + CCCCCCn1cc[n+](C)c1C.F[B-](F)(F)F | 2.28
CC(C)CC(C)(C)C [2,2,4-trimethylpentane] + CCCCCCn1cc[n+](C)c1C.F[B-](F)(F)F | 59.2

---

# procedure details: activity coefficient (dimensionless); of the first substance listed, at infinite dilution; xn = mol fraction of the nth substance listed
# test conditions: 323.15 K; 101.33 kPa; Liquid; Chromatography; x1 = 0
measured endpoint: activity coefficient

CC1CCCCC1 [methylcyclohexane] + CCCCCCn1cc[n+](C)c1C.F[B-](F)(F)F | 25.4
CCCCO [butan-1-ol] + CCCCCCn1cc[n+](C)c1C.F[B-](F)(F)F | 2.67
Cc1ccc(C)cc1 [1,4-dimethylbenzene] + CCCCCCn1cc[n+](C)c1C.F[B-](F)(F)F | 3.05
Cc1ccccc1 [toluene] + CCCCCCn1cc[n+](C)c1C.F[B-](F)(F)F | 2.26
C1=CCCCC1 [cyclohexene] + CCCCCCn1cc[n+](C)c1C.F[B-](F)(F)F | 9.67
CCCCCC [hexane] + CCCCCCn1cc[n+](C)c1C.F[B-](F)(F)F | 29.5
CCOC(C)=O [ethyl acetate] + CCCCCCn1cc[n+](C)c1C.F[B-](F)(F)F | 2.12
CC#N [acetonitrile] + CCCCCCn1cc[n+](C)c1C.F[B-](F)(F)F | 0.54
C1COCCO1 [1,4-dioxane] + CCCCCCn1cc[n+](C)c1C.F[B-](F)(F)F | 1.09
CCCCCCCCC [nonane] + CCCCCCn1cc[n+](C)c1C.F[B-](F)(F)F | 83.5
ClC(Cl)(Cl)Cl [tetrachloromethane] + CCCCCCn1cc[n+](C)c1C.F[B-](F)(F)F | 3.61
CCCO [propan-1-ol] + CCCCCCn1cc[n+](C)c1C.F[B-](F)(F)F | 1.65
CCCCCCC [heptane] + CCCCCCn1cc[n+](C)c1C.F[B-](F)(F)F | 45.4
